Test: viability loss of HPDE-C7K cells – cell-based, fluorescence, HTS, primary screen (AID 431);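 also: 0% = DMSO solvent wells and 100% = doxorubicin-treated wells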
Settings: HPDE-C7K KRASV12 cells, Alamar Blue viability, 48 h; at 10 µM; hits give high values
About 1,100 (1.7%) of roughly 63,000 compounds were called active. The full list was thinned out, with actives kept by preference. Measured potencies and affinities stand elsewhere.
Outcome Measure: cytotoxicity

Q: Given CCOC(=O)c1c(N)sc(C(=O)N2CCOCC2)c1C , state its recorded cytotoxicity.
Result: -10.1% (inactive)

Q: Could you do the same for COc1ccc(COC(=O)c2ccc(N3CCCC3=O)cc2)cc1F , please?
Result: 0.9% (inactive)

Q: Same question, COc1cccc(NC(=O)NC2CCN(Cc3nnnn3Cc3ccc(F)cc3)CC2)c1 this time
Result: -3.4% (inactive)

Q: Would you kindly repeat that for O=C(Nc1ccc(Oc2ccc(NC(=O)c3ccco3)c(NC(=O)c3ccco3)c2)cc1)c1ccco1 ?
Result: 29.9% (inactive)

Q: Entry to check: CC(=O)NCCSC(=O)c1ccc(F)cc1
Result: -2.7% (inactive)

Q: Input COc1ccc(CN(C(=O)CSc2nnc(-c3ccc(F)cc3)o2)c2ccc(F)cc2)cc1
Result: -9.8% (inactive)

Q: Consider next the compound COc1ccc(-c2noc(CCC(N)=O)n2)cc1OC in the same way.
Result: 7.2% (inactive)

Q: Same thing, different compound: CC[C@@H](C)[C@H](NC(=O)OC(C)(C)C)c1nnc(S(=O)(=O)Cc2cc(C)ccc2C)o1
Result: 46.9% (inactive)

Q: Try this compound next: CCOC(=O)c1sc(NC(=O)c2ccco2)nc1-c1ccccc1
Result: -7.2% (inactive)

Q: Continue with CCC(=O)Nc1ccc(NC(=O)c2ccco2)cc1
Result: -4% (inactive)

Q: Next record, please: CC(C)(C)OC(=O)N[C@@H](Cc1ccccc1)c1nnc(S(=O)(=O)Cc2cccc(F)c2)o1
Result: -21.9% (inactive)

Q: Also O=c1cc(CN2CCN(c3ccc(F)cc3)CC2)nc2sccn12 ?
Result: -7.8% (inactive)

Q: What do you get for COc1ccccc1C1C2CCCCC2(O)CCN1CC(=O)Nc1ccccc1 (stereo not drawn) ?
Result: -7.4% (inactive)

Q: Entry to check: O=C(CCc1ccccc1)Nc1ccc(NC(=O)c2ccco2)cc1
Result: -8.3% (inactive)

Q: Another: O=C(Nc1ccc(Nc2ccccc2)cc1)c1ccco1
Result: 66.8% (active)

Q: Now consider O=C(NCCCN1CCCCCC1)c1ccc2c(c1)NC(=O)C(N1CCOCC1)S2 (stereo not drawn) and answer again.
Result: -17.2% (inactive)

Q: What would you report for Cc1nc2ccccn2c(=O)c1CCN1CCC(C(=O)c2ccc(F)cc2)CC1 ?
Result: 10.8% (inactive)

Q: # repeat for CN1CCN(S(=O)(=O)c2ccc(NC(=O)c3ccc(Br)o3)cc2)CC1
Result: -14.1% (inactive)

Q: Also CCc1ccc(OCC(=O)N(C)C)c(Br)c1 , if possible.
Result: 7% (inactive)

Q: Same read-out for Cc1ccc(Oc2ccc(NC(=O)c3ccco3)cc2)cc1 ?
Result: 84.2% (active)

Q: Again, but for O=C(CC(NS(=O)(=O)c1ccc(Cl)cc1)c1ccco1)NCc1cccnc1 (stereo not drawn)
Result: -10.2% (inactive)

Q: Another compound: O=C(Nc1ccc(S(=O)(=O)N2CCOCC2)cc1)c1ccc(Br)o1
Result: -9.2% (inactive)

Q: Please answer likewise for CCOC(=O)c1nnn(-c2nonc2N)c1COc1ccccc1
Result: -16.7% (inactive)
